Target: Cytochrome P450 2C19 (Homo sapiens) (UniProt P33261)
Sequence (P33261 whole entry, looked up): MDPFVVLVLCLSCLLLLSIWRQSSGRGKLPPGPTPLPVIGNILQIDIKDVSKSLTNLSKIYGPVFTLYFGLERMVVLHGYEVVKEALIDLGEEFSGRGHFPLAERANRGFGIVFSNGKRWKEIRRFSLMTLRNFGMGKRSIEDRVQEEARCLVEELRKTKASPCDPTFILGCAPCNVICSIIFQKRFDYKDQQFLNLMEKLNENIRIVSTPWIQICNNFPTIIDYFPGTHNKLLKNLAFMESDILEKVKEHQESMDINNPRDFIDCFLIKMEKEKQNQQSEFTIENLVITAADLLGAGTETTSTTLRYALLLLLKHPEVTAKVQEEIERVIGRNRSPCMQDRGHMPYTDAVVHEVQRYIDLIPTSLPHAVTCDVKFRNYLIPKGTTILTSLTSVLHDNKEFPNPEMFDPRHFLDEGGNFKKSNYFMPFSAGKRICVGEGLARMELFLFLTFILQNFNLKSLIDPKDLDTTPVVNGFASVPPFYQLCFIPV
Test: Cytochrome P450 Family 2 Subfamily C Member 19 (CYP2C19) small molecule antagonists: luciferase reporter qHTS assay (AID 1671197); note: nearly all actives have a fitted effect of over 65% in size
Settings: P450-Glo CYP2C19 enzyme, luciferin luminescence, 1 h; series mostly up to 52.9 µM
Records with an inconclusive call do not appear. Active and inactive are the calls of the source. Calls come from the whole dose curve; as a rule, active = well fitted inhibition curve with a large enough effect in the repeat runs; inconclusive = weak or mixed curves; inactive = no such curve, though single readings can be large or run the other way.
Could you please pick one outcome from this set? active, inactive

Look up the recorded call for "COc1ccc(C(=O)c2ccc(OC)cc2O)c(O)c1" in this test.
active

Next:
Look up the recorded call for O=CC1CC=CCC1 (stereo unspecified) in this test.
inactive

Quick one: "Cc1ccccc1S(=O)(=O)O"
inactive

Quick one: O[C@@H](COc1cccc2ncccc12)CN1CCN(C2c3ccccc3[C@@H]3[C@H](c4ccccc42)C3(F)F)CC1 (stereo partly specified)
active

Quick one: "CCCCCCCN"
inactive

Quick one: "O=C1CCCCCCCCCCCC(=O)OCCO1"
active

Quick one: "O=C1[C@H]2CCCC[C@H]2C(=O)N1CCCCN1CCN(c2nsc3ccccc23)CC1"
inactive
